# ASSAY_TEXT: qHTS assay to identify aromatase inhibitors - cell viability counter screen (AID 743084);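 note: cells stimulated with testosterone during compound exposure; nearly all actives have a fitted effect of over 55% in size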
# CONDITION_DESCRIPTION: MCF-7 aro ERE viability, CellTiter-Fluor, 24 h; series mostly up to 70.3 µM
Inconclusive results are not listed. Activity calls are given as the source filed them. Calls come from the whole dose curve; as a rule, active = well fitted cell-killing curve with a large enough effect in the repeat runs; inconclusive = weak or mixed curves, or effect the other way; inactive = no such curve, though single readings can be large or run the other way.
Outcomes: true (1) for active, false (0) for inactive

>>> print(df.to_string())
                                    compound  label_class
 0  O=S(=O)(O)C(F)(F)C(F)(F)C(F)(F)C(F)(F)C(F)(F)C(F)(F)C(F)(F)C(F)(F)F    false (0)
 1  O=C1Nc2ccc(Cl)cc2C(c2ccccc2)=NC1O (centres undefined)    false (0)
 2           C=CC(Cl)CCl (centres undefined)    false (0)
 3  CCCCCCCCCC(CC)c1ccc(S(=O)(=O)O)cc1 (centres undefined)    false (0)
 4                            Brc1ccc(Br)cc1    false (0)
 5                                   OCCOCCO    false (0)
 6               CCOP(=S)(OCC)OP(=S)(OCC)OCC    false (0)
 7  CC(C)(O)C(=O)Nc1ccc([N+](=O)[O-])c(C(F)(F)F)c1    false (0)
 8                      CCCCCCCCCc1ccc(O)cc1     true (1)
 9                      CC1(C)Cc2cccc(O)c2O1    false (0)
10                                 O=C1CCCO1    false (0)
11                             ClC(Cl)(Cl)Br    false (0)
12  CC(C)(c1ccc(OCC2CO2)cc1)c1ccc(OCC2CO2)cc1 (centres undefined)    false (0)
13                        C[N+](C)(C)CC(=O)O    false (0)

---

# ASSAY_TEXT: qHTS assay to identify small molecule agonists of the TGF-beta/Smad signaling pathway - cell viability counter screen (AID 1346829); note: nearly all actives have a fitted effect of over 45% in size
# CONDITION_DESCRIPTION: SBE-bla HEK293T viability, CellTiter-Glo luminescence, 5 h; series mostly up to 76.8 µM
# Description: National Center for Advancing Translational Sciences [NCATS] NIH Chemical Genomics Center [NCGC] U.S. Environmental Protection Agency [EPA] National Institutes of Environmental Health Sciences [NIEHS] National Toxicology Program [NTP] U.S. Food and Drug Administration [FDA] Transforming growth factor beta (TGF-beta) superfamily consists of a large number of structurally related dimeric proteins that act as hormones or local mediators in regulating a wide range of biological functions. […]
Inconclusive results are not listed. Active and inactive are the calls of the source. Calls follow the shape of the dose curve; as a rule, active = well fitted cell-killing curve with a large enough effect in the repeat runs; inconclusive = weak or mixed curves, or effect the other way; inactive = flat fitted curve, though single readings scatter.
Outcomes: active, inactive

>>> df
                                    compound  label_class
 0          CC(C)COC(=O)c1ccccc1C(=O)OCC(C)C     inactive
 1    O=[N+]([O-])c1ccc(Cl)c([N+](=O)[O-])c1       active
 2                   COc1ccc(O)c(C(C)(C)C)c1     inactive
 3                            CCCCOCCOC(C)=O     inactive
 4                              C[N+](C)(C)C     inactive
 5  CC(C)(c1ccc(OCC2CO2)cc1)c1ccc(OCC2CO2)cc1 (stereo not drawn)     inactive
 6  C[C@]12CC[C@H]3[C@@H](CCC4=CC(=O)CC[C@@H]43)[C@@H]1CC[C@@H]2O     inactive
 7                               CC(C)(O)C#N     inactive
 8                  [Cl-].[Cl-].[Cl-].[Fe+3]     inactive
 9  CC1(C)C(C(=O)OC(C#N)c2cccc(Oc3ccccc3)c2)C1(C)C (stereo not drawn)     inactive
10               CCOP(=S)(OCC)OP(=S)(OCC)OCC     inactive
11                      CNC(=O)CSP(=S)(OC)OC     inactive
12          Clc1ccccc1-c1nnc(-c2ccccc2Cl)nn1     inactive

---

# ASSAYED_TARGET: Thyrotropin-releasing hormone receptor (Homo sapiens)
# ASSAY_TEXT: qHTS assay to identify small molecule antagonists of the thyrotropin-releasing hormone receptor (TRHR) signaling pathway (AID 1346877)
# CONDITION_DESCRIPTION: TRHR-HEK293, TRH-induced calcium fluorescence, antagonist mode; series mostly up to 51.3 µM
Calls of active or inactive are those of the source. Calls come from the whole dose curve; as a rule, active = well fitted inhibition curve with a large enough effect in the repeat runs (not every such curve was filed as active); inconclusive = weak or mixed curves; inactive = flat fitted curve, though single readings scatter.
PROPERTY_MEASURED: outcome

>>> df
                                    molecule                            assayed_target  measured
 0                                  O=C(O)CF  Thyrotropin-releasing hormone receptor (Homo sapiens)  inactive
 1                                N#CCCCCC#N  Thyrotropin-releasing hormone receptor (Homo sapiens)  inactive
 2                           Nc1ccc2ccccc2c1  Thyrotropin-releasing hormone receptor (Homo sapiens)  inactive
 3                         CCOC(=O)c1ccccc1N  Thyrotropin-releasing hormone receptor (Homo sapiens)  inactive
 4                ClC(Cl)=C(Cl)C(Cl)=C(Cl)Cl  Thyrotropin-releasing hormone receptor (Homo sapiens)  inactive
 5                    CCCCSP(=O)(SCCCC)SCCCC  Thyrotropin-releasing hormone receptor (Homo sapiens)  inactive
 6          CCC[CH2][Sn]([Cl])([Cl])[CH2]CCC  Thyrotropin-releasing hormone receptor (Homo sapiens)  inactive
 7                 [CH3][Sn]([Cl])([Cl])[Cl]  Thyrotropin-releasing hormone receptor (Homo sapiens)  inactive
 8             COP(=S)(OC)SCn1nnc2ccccc2c1=O  Thyrotropin-releasing hormone receptor (Homo sapiens)  inactive
 9  CCCCC(C#N)(Cn1cncn1)c1ccc(Cl)cc1 (centres undefined)  Thyrotropin-releasing hormone receptor (Homo sapiens)  inactive
10                      CNC(=O)CSP(=S)(OC)OC  Thyrotropin-releasing hormone receptor (Homo sapiens)  inactive
11                 CC(C)Nc1ccc(Nc2ccccc2)cc1  Thyrotropin-releasing hormone receptor (Homo sapiens)  inactive
12                                     CCNCC  Thyrotropin-releasing hormone receptor (Homo sapiens)  inactive
13        Cn1c(-c2ccccc2)cc(-c2ccccc2)[n+]1C  Thyrotropin-releasing hormone receptor (Homo sapiens)  inactive
14  OC(c1ccc(Cl)cc1)(c1cncnc1)c1ccccc1Cl (centres undefined)  Thyrotropin-releasing hormone receptor (Homo sapiens)  inactive
15  CC(C)(c1ccc(OCC2CO2)cc1)c1ccc(OCC2CO2)cc1 (centres undefined)  Thyrotropin-releasing hormone receptor (Homo sapiens)  inactive
16  N#Cc1nn(-c2c(Cl)cc(C(F)(F)F)cc2Cl)c(N)c1S(=O)C(F)(F)F (centres undefined)  Thyrotropin-releasing hormone receptor (Homo sapiens)  inactive
17          CC(C)COC(=O)c1ccccc1C(=O)OCC(C)C  Thyrotropin-releasing hormone receptor (Homo sapiens)  inactive
18      Cc1ccc(N=CN(C)C=Nc2ccc(C)cc2C)c(C)c1  Thyrotropin-releasing hormone receptor (Homo sapiens)  inactive
19      O=C(O)c1nn(Cc2ccc(Cl)cc2Cl)c2ccccc12  Thyrotropin-releasing hormone receptor (Homo sapiens)  inactive
20                    c1ccc2c(c1)Nc1ccccc1S2  Thyrotropin-releasing hormone receptor (Homo sapiens)  inactive
21  CCC1(c2ccc(N)cc2)CCC(=O)NC1=O (centres undefined)  Thyrotropin-releasing hormone receptor (Homo sapiens)  inactive
22                            CCCCOCCOC(C)=O  Thyrotropin-releasing hormone receptor (Homo sapiens)  inactive
23  CC(C)=CC1C(C(=O)OCN2C(=O)C3=C(CCCC3)C2=O)C1(C)C (centres undefined)  Thyrotropin-releasing hormone receptor (Homo sapiens)  inactive
24                CSc1nc(NC(C)C)nc(NC(C)C)n1  Thyrotropin-releasing hormone receptor (Homo sapiens)  inactive
25    O=[N+]([O-])c1ccc(Cl)c([N+](=O)[O-])c1  Thyrotropin-releasing hormone receptor (Homo sapiens)  inactive
26  CC(C)(c1ccccc1)c1ccc(O)c(C(C)(C)c2ccccc2)c1  Thyrotropin-releasing hormone receptor (Homo sapiens)  inactive
27                  Nc1ccc([N+](=O)[O-])cc1N  Thyrotropin-releasing hormone receptor (Homo sapiens)  inactive
28     C=CC(=O)OCC(CC)(COC(=O)C=C)COC(=O)C=C  Thyrotropin-releasing hormone receptor (Homo sapiens)  inactive
